Known Kd of a selection of substances
Molecular target: human IgG Fc region (Homo sapiens, UniProt P01857)
Construct: The Fc region was prepared by the papain digestion of a human monoclonal antibody IgG
Assay: SPR binding affinity analysis on immobilized Fc region prepared by papain digestion of human monoclonal IgG
Details: alanine variants of p17_2, Fc region immobilized on CM5; read-out: KD (nM), binding dissociation constant of p17_2 variant
outcome.measure: Kd

substance: p17_D47A: alanine variant of p17_2 polypeptide, SEQ ID NO: 61 (GPGISAFSPGRGVYDPETGTWYDAAWHLGELVWATYYDPETGTWEPAWQRMLGQ; Selected sequence, p17_D47A)
result: 45 nM

substance: p17_R50A: alanine variant of p17_2 polypeptide, SEQ ID NO: 63 (GPGISAFSPGRGVYDPETGTWYDAAWHLGELVWATYYDPETGTWEPDWQAMLGQ; Selected sequence, p17_R50A)
result: 7.8 nM

substance: p17_P46A: alanine variant of p17_2 polypeptide, SEQ ID NO: 60 (GPGISAFSPGRGVYDPETGTWYDAAWHLGELVWATYYDPETGTWEADWQRMLGQ; Selected sequence, p17_P46A)
result: 5.6 nM

substance: p17_W48A: alanine variant of p17_2 polypeptide, SEQ ID NO: 62 (GPGISAFSPGRGVYDPETGTWYDAAWHLGELVWATYYDPETGTWEPDAQRMLGQ; Selected sequence, p17_W48A)
result: 200 nM

----------
Biological target: human IgG Fc region (Homo sapiens, UniProt P01857)
Construct: The Fc region was prepared by the papain digestion of a human monoclonal antibody IgG
Experiment: SPR binding affinity analysis on immobilized Fc region prepared by papain digestion of human monoclonal IgG
Settings: Fc region immobilized on CM5, 0.78-100 μM peptide; read-out: equilibrium dissociation constant KD by Scatchard plot using equilibrium value
pKd: −log10 of the molar value. Ends that are not written are not given here.

chain.sequence: DAAWHLGELVWAT [FcIII-Ala peptide, reference compound]
pKd: 4.38

----------
Target: human Fc region manufactured by Jackson ImmunoResearch Laboratories, Inc.
Assay: SPR binding affinity analysis, peptide as analyte on immobilized human Fc region (Jackson ImmunoResearch)
Conditions: peptide analyte, Fc immobilized on sensor chip CM5, HBS-T pH 7.4, 25° C.; read-out: equilibrium dissociation constant KD
pKd: −log10 of the molar value.

chain.sequence: GVVRQWSGGGGSGGGGRSSIAYGGG [2A1Gly peptide, 2A1 peptide with the chignolin variant region replaced by a glycine-rich linker]
study.target: human Fc region manufactured by Jackson ImmunoResearch Laboratories, Inc.
pKd: 4.64
